Where do the numbers come from? From the kinase profiling compilation of Christmann-Franck et al. (2016).

Quick reference: residual activity of the listed items.
target: EPHB3 (human) (UniProt P54753); assay: radiometric filter-binding kinase assay, Kinase HotSpot; conditions: compound 0.5 µM; ATP 10 µM
Sequence (P54753 whole entry, looked up): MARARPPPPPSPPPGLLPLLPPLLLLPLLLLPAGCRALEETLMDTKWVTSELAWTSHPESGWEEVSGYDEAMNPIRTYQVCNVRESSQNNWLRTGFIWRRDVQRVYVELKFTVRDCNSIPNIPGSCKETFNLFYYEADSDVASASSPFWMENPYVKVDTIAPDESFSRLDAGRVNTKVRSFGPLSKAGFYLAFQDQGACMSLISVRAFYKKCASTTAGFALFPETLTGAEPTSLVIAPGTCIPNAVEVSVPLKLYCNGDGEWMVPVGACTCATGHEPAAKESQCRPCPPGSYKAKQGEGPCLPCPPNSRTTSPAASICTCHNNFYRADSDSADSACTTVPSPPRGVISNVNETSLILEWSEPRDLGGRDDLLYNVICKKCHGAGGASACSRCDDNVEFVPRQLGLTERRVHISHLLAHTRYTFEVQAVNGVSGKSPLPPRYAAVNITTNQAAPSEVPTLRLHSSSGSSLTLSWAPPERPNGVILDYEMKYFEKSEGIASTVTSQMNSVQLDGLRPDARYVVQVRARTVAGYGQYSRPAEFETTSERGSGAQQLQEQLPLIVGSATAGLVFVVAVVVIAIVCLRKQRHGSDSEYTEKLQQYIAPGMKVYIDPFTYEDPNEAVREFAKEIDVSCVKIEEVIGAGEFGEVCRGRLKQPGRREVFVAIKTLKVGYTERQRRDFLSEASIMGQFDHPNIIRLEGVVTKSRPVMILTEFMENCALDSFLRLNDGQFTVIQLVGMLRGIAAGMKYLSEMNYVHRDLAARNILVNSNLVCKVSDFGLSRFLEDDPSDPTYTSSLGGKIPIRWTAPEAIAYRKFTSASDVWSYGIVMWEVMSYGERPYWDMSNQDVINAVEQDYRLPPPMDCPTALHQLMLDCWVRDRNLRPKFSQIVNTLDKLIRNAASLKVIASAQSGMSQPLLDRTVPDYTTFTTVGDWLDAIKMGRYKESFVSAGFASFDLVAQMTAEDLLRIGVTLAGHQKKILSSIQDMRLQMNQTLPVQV
The figure you give is taken to be in %; do not add the unit.

compound: O=c1cc(N2CCNCC2)oc2c(-c3ccccc3)cccc12
system name: EPHB3 (human) (UniProt P54753)
residual activity, %: 94.5
--
compound: C#Cc1cccc(Nc2ncnc3cc(OCCOC)c(OCCOC)cc23)c1
system name: EPHB3 (human) (UniProt P54753)
residual activity, %: 58
--
compound: NC(=O)c1ccc(N(C(N)=O)c2c(F)cccc2F)nc1-c1ccc(F)cc1F
system name: EPHB3 (human) (UniProt P54753)
residual activity, %: 65.8

IN: Need residual activity of `Oc1ccc(-c2nc(-c3ccc(F)cc3)c(-c3ccncc3)[nH]2)cc1` , thanks.
OUT: 97.7

IN: Another compound to look at: `Nc1nc(Nc2ccc(S(N)(=O)=O)cc2)nn1C(=S)Nc1c(F)cccc1F`
OUT: 90.4

IN: Another compound to look at: `Nc1nc(Nc2ccc(S(N)(=O)=O)cc2)nn1C(=O)c1c(F)cccc1F`
OUT: 98.5

IN: Another compound to look at: `O=C(Nc1ccc(Cl)cc1)c1ccccc1NCc1ccncc1`
OUT: 96.9

IN: Another compound to look at: `COc1ccc(-c2cnc3c(-c4ccsc4)cnn3c2)cc1`
OUT: 99.4

IN: Another compound to look at: `O=C1Nc2cc(Br)ccc2/C1=C1/Nc2ccccc2/C1=N\O`
OUT: 103

IN: Another compound to look at: O=C(NC(NC(=S)Nc1ccc(F)c([N+](=O)[O-])c1)C(Cl)(Cl)Cl)C(c1ccccc1)c1ccccc1 (stereo not given)
OUT: 104

* * *

Quick reference: residual activity of the listed items.
biological target: CLK3 (human) (UniProt P49761); assay: radiometric filter-binding kinase assay, Kinase HotSpot; conditions: compound 0.5 µM; ATP 10 µM
Sequence (P49761 whole entry, looked up): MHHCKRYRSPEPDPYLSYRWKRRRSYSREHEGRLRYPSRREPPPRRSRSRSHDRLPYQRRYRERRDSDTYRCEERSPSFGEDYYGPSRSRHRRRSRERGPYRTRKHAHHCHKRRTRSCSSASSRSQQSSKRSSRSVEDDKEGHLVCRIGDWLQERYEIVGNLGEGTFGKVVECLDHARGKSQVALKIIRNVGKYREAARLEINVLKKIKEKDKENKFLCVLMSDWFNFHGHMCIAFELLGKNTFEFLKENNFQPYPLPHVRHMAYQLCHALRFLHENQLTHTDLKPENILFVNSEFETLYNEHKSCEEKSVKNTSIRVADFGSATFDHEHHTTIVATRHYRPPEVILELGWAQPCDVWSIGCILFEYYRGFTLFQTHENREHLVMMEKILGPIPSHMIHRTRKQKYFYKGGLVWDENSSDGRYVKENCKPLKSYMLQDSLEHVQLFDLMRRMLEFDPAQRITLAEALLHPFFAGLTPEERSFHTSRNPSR
Quick note: unit goes after the number.

Examples with their reported residual activity follow.
compound: Cc1ccc(NC(=O)c2ccc(CN3CCN(C)CC3)cc2)cc1Nc1nc(-c2cccnc2)cs1
system name: CLK3 (human) (UniProt P49761)
residual activity: 93.6%

compound: Nc1n[nH]c2nnc(-c3c(-c4ccccc4)nn4ccccc34)cc12
system name: CLK3 (human) (UniProt P49761)
residual activity: 94.9%

compound: COc1ccc(-c2cnc3c(-c4ccsc4)cnn3c2)cc1
system name: CLK3 (human) (UniProt P49761)
residual activity: 100%

IN: Look up residual activity with CLK3 (human) (UniProt P49761) for this compound: CSc1nc(-c2ccc(F)cc2)c(-c2ccnc(NC(C)c3ccccc3)c2)[nH]1 (stereo not given)
OUT: 85.4%

IN: Another compound to look at: `COc1cc2nccc(Oc3ccc(NC(=S)NC(=O)c4ccccc4C)cc3)c2cc1OC`
OUT: 93.2%

* * *

Quick reference: residual activity of the listed items.
biological target: DYRK1B (human) (UniProt Q9Y463); assay: radiometric filter-binding kinase assay, Kinase HotSpot; settings: compound 0.5 µM; ATP 10 µM
Sequence (Q9Y463 whole entry, looked up): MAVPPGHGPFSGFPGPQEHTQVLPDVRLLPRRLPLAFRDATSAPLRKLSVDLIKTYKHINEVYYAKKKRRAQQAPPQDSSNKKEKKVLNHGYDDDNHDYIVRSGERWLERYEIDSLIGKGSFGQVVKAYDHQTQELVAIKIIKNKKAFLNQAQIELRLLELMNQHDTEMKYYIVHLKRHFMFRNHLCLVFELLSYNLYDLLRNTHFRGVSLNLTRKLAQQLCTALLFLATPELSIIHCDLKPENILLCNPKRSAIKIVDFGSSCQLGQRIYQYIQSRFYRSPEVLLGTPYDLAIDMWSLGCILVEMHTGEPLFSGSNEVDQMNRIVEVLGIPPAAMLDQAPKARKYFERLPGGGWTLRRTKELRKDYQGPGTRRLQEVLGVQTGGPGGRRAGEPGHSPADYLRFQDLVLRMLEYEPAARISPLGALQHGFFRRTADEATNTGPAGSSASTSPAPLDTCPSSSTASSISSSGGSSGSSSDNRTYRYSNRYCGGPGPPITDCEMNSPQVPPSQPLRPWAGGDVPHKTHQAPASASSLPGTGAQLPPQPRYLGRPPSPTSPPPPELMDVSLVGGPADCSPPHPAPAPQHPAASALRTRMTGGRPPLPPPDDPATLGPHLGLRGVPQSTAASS
The figure you give is taken to be in %; do not add the unit.

Examples with their reported residual activity follow.
compound: Nc1n[nH]c2nnc(-c3c(-c4ccccc4)nn4ccccc34)cc12
system name: DYRK1B (human) (UniProt Q9Y463)
output unit: %
measured value: 101
--
compound: CCN1/C(=C/C(C)=O)Sc2ccc(OC)cc21
system name: DYRK1B (human) (UniProt Q9Y463)
output unit: %
measured value: 32.9
--
compound: CC(C)(C)c1nc2c3ccc(F)cc3c3c(=O)[nH]ccc3c2[nH]1
system name: DYRK1B (human) (UniProt Q9Y463)
output unit: %
measured value: 88.2
--
compound: O=C1Nc2ccccc2/C1=C\c1c(Cl)[nH]c2ccccc12
system name: DYRK1B (human) (UniProt Q9Y463)
output unit: %
measured value: 99.3
--
compound: CC(C)n1cnc2c(Nc3cccc(Cl)c3)nc(NCCO)nc21
system name: DYRK1B (human) (UniProt Q9Y463)
output unit: %
measured value: 78.8
--
compound: CCCNC(=O)Nc1ccc(Oc2ncnc3cc(OC)c(OC)cc23)cc1Cl
system name: DYRK1B (human) (UniProt Q9Y463)
output unit: %
measured value: 104

IN: Look up residual activity with DYRK1B (human) (UniProt Q9Y463) for this compound: `O=c1cc(N2CCNCC2)oc2c(-c3ccccc3)cccc12`
OUT: 99.2

IN: Another compound to look at: `Cc1cc2ncc(-c3ccccc3)nc2cc1C`
OUT: 106

IN: Another compound to look at: `Oc1ccc(-c2nc(-c3ccc(F)cc3)c(-c3ccncc3)[nH]2)cc1`
OUT: 105

IN: Another compound to look at: `Nc1nc(Nc2ccc(S(N)(=O)=O)cc2)nn1C(=O)c1c(F)cccc1F`
OUT: 87.6

IN: Another compound to look at: O=C(NC(NC(=S)Nc1ccc(F)c([N+](=O)[O-])c1)C(Cl)(Cl)Cl)C(c1ccccc1)c1ccccc1 (stereo unspecified)
OUT: 103
